Consider the following molecules; for each one, report its pIC50.
pIC50 (log units): -log10 of the concentration in mol/L.

Enter recorded pIC50 with Mcl-1 protein (residues 171-323) (Homo sapiens (Human)) for Cc1c(C(=O)O)n2c3ccc(Cl)c(c13)-c1c(nn(C)c1C)CSCc1cc(n(C)n1)CSc1cc(c3ccc(F)cc3c1)OCCC2 (atropisomer, axis not shown) [Cpd. No. 15] here.
Sequence (Q07820 171-323): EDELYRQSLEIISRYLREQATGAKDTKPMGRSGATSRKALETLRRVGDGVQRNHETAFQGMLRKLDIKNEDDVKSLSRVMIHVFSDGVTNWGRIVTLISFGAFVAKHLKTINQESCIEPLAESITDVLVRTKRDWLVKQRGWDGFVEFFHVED
8.70

Find pIC50 for CCc1c(C(=O)O)n2c3ccc(Cl)c(c13)-c1c(nn(C)c1C)CSCc1cc(n(C)n1)CSc1cc(c3ccccc3c1)OCCC2 [Cpd. No. 8] on Mcl-1 protein (residues 171-323) (Homo sapiens (Human)) and write it down.
7.68

For Mcl-1 protein (residues 171-323) (Homo sapiens (Human)), give pIC50 of the listed molecule: Cc1c(C(=O)O)n2c3ccc(Cl)c(c13)-c1c(nn(C)c1C)CSCc1cc(n(C)n1)CSc1cc(c3ccc(F)cc3c1)OCCC2 [Cpd. No. 14]
7.72

Provide measured pIC50 on Mcl-1 protein (residues 171-323) (Homo sapiens (Human)) for Cc1c(C(=O)O)n2c3ccc(Cl)c(c13)-c1c(nn(C)c1C)CN(S(C)(=O)=O)Cc1cc(n(C)n1)CSc1cc(c3ccc(F)cc3c1)OCCC2 [Cpd. No. 34] please.
5.59

====

# System: NCI-H929 cells
# Assay Comment: Cell viability assay (NCI-H929 cells), CCK-8
# Format: cell-based
# Protocol Conditions: 5% FBS, 24 hrs
Assignment: determine reported pIC50 for the given compounds.
# pIC50 = -log10(concentration in molar units)

# return recorded pIC50 for input Cc1c(C(=O)O)n2c3ccc(Cl)c(c13)-c1c(nn(C)c1C)CSCc1cc(n(C)n1)CSc1cc(c3ccc(F)cc3c1)OCCC2 (atropisomer, axis not shown) [Cpd. No. 16]
5.65

Look up and state reported pIC50 for Cc1c(C(=O)O)n2c3ccc(Cl)c(c13)-c1c(nn(C)c1C)CN(S(C)(=O)=O)Cc1cc(n(C)n1)CSc1cc(c3ccc(F)cc3c1)OCCC2 [Cpd. No. 32]
6.67

Give me measured pIC50, please, for this compound: Cc1c(C(=O)O)n2c3ccc(Cl)c(c13)-c1c(nn(C)c1C)CN(S(C)(=O)=O)Cc1cc(n(C)n1)CSc1cc(c3ccc(F)cc3c1)OCCC2 [Cpd. No. 34]
5.07

Indicate its recorded pIC50; the compound in question is Cc1c(C(=O)O)n2c3ccc(Cl)c(c13)-c1c(nn(C)c1C)CN(S(C)(=O)=O)Cc1cc(n(C)n1)CSc1cc(c3ccc(F)cc3c1)OCCC2 (atropisomer, axis not shown) [Cpd. No. 33]
6.97

Look up pIC50 of Cc1c(C(=O)O)n2c3ccc(Cl)c(c13)-c1c(nn(C)c1C)CSCc1cc(n(C)n1)CSc1cc(c3ccccc3c1)OCCC2 (atropisomer, axis not shown) [Cpd. No. 7] and report it.
5.13

====

# Assay Comment: Microsome clearance assay, rat
# Format: in vitro ADME
# Protocol Conditions: male, Wister, rat, pooled liver microsomes, pH 7.4, rat liver microsomes, 0.5 mg/ml protein, 1 mM NADPH, 60 minutes, read-out: Rat Liver Microsome Clint (μL/min/mg protein)
Rule: measured microsomal CLint at 5 μM below 40 µL/min/mg gets TRUE; anything equal to or greater than 40 µL/min/mg gets FALSE.

Does this molecule meet the criterion microsomal CLint at 5 μM < 40 µL/min/mg? `Cc1c(C(=O)O)n2c3ccc(Cl)c(c13)-c1c(nn(C)c1C)CN(C(C)C)Cc1cc(n(C)n1)CSc1cc(c3ccc(F)cc3c1)OCCC2`
TRUE

Given `COCCn1nc2c(c1C)-c1c(Cl)ccc3c1c(C)c(C(=O)O)n3CCCOc1cc(cc3ccccc13)SCc1cc(nn1C)CSC2` , is recorded microsomal CLint at 5 μM strictly lower than 40 µL/min/mg?
TRUE

Lab note: confirm whether the reported microsomal CLint at 5 μM for this molecule is below 40 µL/min/mg, equality not counting. molecule: `Cc1c(C(=O)O)n2c3ccc(Cl)c(c13)-c1c(nn3c1COCC3)CN(CCNS(C)(=O)=O)Cc1cc(n(C)n1)CSc1cc(c3ccc(F)cc3c1)OCCC2`
TRUE

Is it true that microsomal CLint at 5 μM reported for `Cc1c(C(=O)O)n2c3ccc(Cl)c(c13)-c1c(nn(C)c1C)CN(S(=O)(=O)C(F)(F)F)Cc1cc(n(C)n1)CSc1cc(c3ccc(F)cc3c1)OCCC2` is less than 40 µL/min/mg?
FALSE

Consider the molecule `Cc1c(C(=O)O)n2c3ccc(Cl)c(c13)-c1c(nn3c1COCC3)CN(S(=O)(=O)C1CC1)Cc1cc(n(C)n1)CSc1cc(c3ccc(F)cc3c1)OCCC2` . Is its microsomal CLint at 5 μM strictly less than 40 µL/min/mg?
TRUE

In the record for `Cc1c(C(=O)O)n2c3ccc(Cl)c(c13)-c1c(nn(C)c1C)CN(S(C)(=O)=O)Cc1cc(n(C)n1)CSc1cc(c3ccccc3c1)OCCC2` , is microsomal CLint at 5 μM less than 40 µL/min/mg?
TRUE

====

Record form. Attribute: Rat Liver Microsome Clint (μL/min/mg protein). Fill in for each entry.
# Assay Comment: Microsome clearance assay, rat
# Format: in vitro ADME
# Protocol Conditions: rat liver microsomes, 0.5 mg/ml protein, 5 μM, 1 mM NADPH, 60 minutes
The figure you give is taken to be in μL/min/mg protein; do not add the unit.

Hello, please tell me recorded Rat Liver Microsome Clint (μL/min/mg protein) for this one: Cc1c(C(=O)O)n2c3ccc(Cl)c(c13)-c1c(nn(C)c1C)CSCc1cc(n(C)n1)CSc1cc(c3ccccc3c1)OCCC2 [Cpd. No. 5]
58.8

Please give the documented Rat Liver Microsome Clint (μL/min/mg protein) of Cc1c(C(=O)O)n2c3ccc(Cl)c(c13)-c1c(nn(C)c1C)CSCc1cc(n(C)n1)CSc1cc(c3ccccc3c1)OCCC2 (atropisomer, axis not shown) [Cpd. No. 6]
21.0

For the compound Cc1c(C(=O)O)n2c3ccc(Cl)c(c13)-c1c(nn(C)c1C)CSCc1cc(n(C)n1)CSc1cc(c3ccccc3c1)OCCC2 (atropisomer, axis not shown) [Cpd. No. 7] , give its reported Rat Liver Microsome Clint (μL/min/mg protein).
111

====

# Assay Comment: Microsome clearance assay, rat
# Assay type: in vitro ADME
# Protocol Conditions: male, Wister, rat, pooled liver microsomes, pH 7.4, rat liver microsomes, 0.5 mg/ml protein, 1 mM NADPH, 60 minutes, read-out: Rat Liver Microsome Clint (μL/min/mg protein)
Observable: microsomal CLint at 5 μM (µL/min/mg)
Value expressed in µL/min/mg; do not type the unit.

State, in one line, measured microsomal CLint at 5 μM of Cc1c(C(=O)O)n2c3ccc(Cl)c(c13)-c1c(nn3c1CCC3)CSCc1cc(n(C)n1)CSc1cc(c3ccc(F)cc3c1)OCCC2 [Cpd. No. 2]
31.2

Consider the compound Cc1c2c(nn1C)CSCc1cc(n(C)n1)CSc1cc(c3ccc(F)cc3c1)OCCCn1c(C(=O)O)c(CN(C)S(=O)(=O)C(F)(F)F)c3c-2c(Cl)ccc31 [Cpd. No. 23] and give its recorded microsomal CLint at 5 μM.
30.4

Recall and state the measured microsomal CLint at 5 μM for CCc1c(C(=O)O)n2c3ccc(Cl)c(c13)-c1c(nn(C)c1C)CSCc1cc(n(C)n1)CSc1cc(c3ccccc3c1)OCCC2 [Cpd. No. 8] .
299

Identify microsomal CLint at 5 μM associated with the compound CC(=O)NCc1c(C(=O)O)n2c3ccc(Cl)c(c13)-c1c(nn(C)c1C)CSCc1cc(n(C)n1)CSc1cc(c3ccccc3c1)OCCC2 [Cpd. No. 12]
30.6

Give microsomal CLint at 5 μM for CNC(=O)Cn1nc(C)c2c1CSCc1cc(n(C)n1)CSc1cc(c3ccccc3c1)OCCCn1c(C(=O)O)c(C)c3c-2c(Cl)ccc31 [Cpd. No. 26]
14.2

Provide microsomal CLint at 5 μM value for the following compound: Cc1nn(C)c2c1-c1c(Cl)ccc3c1c(C)c(C(=O)O)n3CCCOc1cc(cc3cc(F)ccc13)SCc1cc(nn1C)CSC2 [Cpd. No. 28]
38.4

====

# Assay Comment: Microsome clearance assay, human
# Type: in vitro ADME
# Protocol Conditions: human, pooled liver microsomes, pH 7.4, human liver microsomes, 0.5 mg/ml protein, 1 mM NADPH, 60 minutes, read-out: Human Liver Microsome Clint (μL/min/mg protein)
Observable: log10(microsomal CLint at 5 μM) (log10 of the value in µL/min/mg)
Units before log transform: µL/min/mg; reported quantity: microsomal CLint at 5 μM; transform: log10.

Item Cc1c(C(=O)O)n2c3ccc(Cl)c(c13)-c1c(nn(C)c1C)CN(S(=O)(=O)C(F)(F)F)Cc1cc(n(C)n1)CSc1cc(c3ccc(F)cc3c1)OCCC2 [Cpd. No. 35] : provide log10(microsomal CLint at 5 μM)
1.73

Recall and state the measured log10(microsomal CLint at 5 μM) for Cc1c(C(=O)O)n2c3ccc(Cl)c(c13)-c1c(nn3c1CCC3)CSCc1cc(n(C)n1)CSc1cc(c3ccc(F)cc3c1)OCCC2 [Cpd. No. 2] .
1.26

Determine its reported log10(microsomal CLint at 5 μM): Cc1c(C(=O)O)n2c3ccc(Cl)c(c13)-c1c(nn3c1COCC3)CSCc1cc(n(C)n1)CSc1cc(c3ccc(F)cc3c1)OCCC2 [Cpd. No. 4]
1.14

For Cc1c2c(nn1C)CSCc1cc(n(C)n1)CSc1cc(c3ccc(F)cc3c1)OCCCn1c(C(=O)O)c(CN(C)S(=O)(=O)C(F)(F)F)c3c-2c(Cl)ccc31 [Cpd. No. 23] , write its log10(microsomal CLint at 5 μM).
1.68

Answer with the recorded log10(microsomal CLint at 5 μM) for the molecule listed here: Cc1c2c(nn1C)CSCc1cc(n(C)n1)CSc1cc(c3ccc(F)cc3c1)OCCCn1c(C(=O)O)c(C(F)(F)F)c3c-2c(Cl)ccc31 [Cpd. No. 24]
1.34

Name the recorded log10(microsomal CLint at 5 μM) of the molecule listed here: Cc1ccc2c3c(C)c(C(=O)O)n2CCCOc2cc(cc4cc(F)ccc24)SCc2cc(nn2C)CSCc2nn(C)c(C)c2-c13 [Cpd. No. 22]
1.07

Provide log10(microsomal CLint at 5 μM) value for the following molecule: CNC(=O)Cn1nc(C)c2c1CSCc1cc(n(C)n1)CSc1cc(c3ccccc3c1)OCCCn1c(C(=O)O)c(C)c3c-2c(Cl)ccc31 [Cpd. No. 26]
1.11

Using the record for CCc1c(C(=O)O)n2c3ccc(Cl)c(c13)-c1c(nn(C)c1C)CSCc1cc(n(C)n1)CSc1cc(c3ccccc3c1)OCCC2 [Cpd. No. 8] , state its measured log10(microsomal CLint at 5 μM).
1.94

Give me measured log10(microsomal CLint at 5 μM), please, for this molecule: COCCN1Cc2cc(n(C)n2)CSc2cc(c3ccc(F)cc3c2)OCCCn2c(C(=O)O)c(C)c3c(c(Cl)ccc32)-c2c(nn3c2COCC3)C1 [Cpd. No. 50]
1.01

// Input: Cc1c(C(=O)O)n2c3ccc(Cl)c(c13)-c1c(nn3c1COCC3)CN(S(=O)(=O)C1CC1)Cc1cc(n(C)n1)CSc1cc(c3ccc(F)cc3c1)OCCC2 [Cpd. No. 31] . Output its log10(microsomal CLint at 5 μM) only.
0.87
